biological target: NMDA receptor subunits 1A/2A (Rattus norvegicus, UniProt P35439+Q00959); construct: clones from Dr. P. H. Seeburg); test: Electrophysiological assay at NMDA receptor subunits expressed in Xenopus oocytes, 1A/2A; conditions: glutamate 100 μm and glycine 1-100 μm
Sequence (Q00959 20-1464 limits assumed, other chains not shown): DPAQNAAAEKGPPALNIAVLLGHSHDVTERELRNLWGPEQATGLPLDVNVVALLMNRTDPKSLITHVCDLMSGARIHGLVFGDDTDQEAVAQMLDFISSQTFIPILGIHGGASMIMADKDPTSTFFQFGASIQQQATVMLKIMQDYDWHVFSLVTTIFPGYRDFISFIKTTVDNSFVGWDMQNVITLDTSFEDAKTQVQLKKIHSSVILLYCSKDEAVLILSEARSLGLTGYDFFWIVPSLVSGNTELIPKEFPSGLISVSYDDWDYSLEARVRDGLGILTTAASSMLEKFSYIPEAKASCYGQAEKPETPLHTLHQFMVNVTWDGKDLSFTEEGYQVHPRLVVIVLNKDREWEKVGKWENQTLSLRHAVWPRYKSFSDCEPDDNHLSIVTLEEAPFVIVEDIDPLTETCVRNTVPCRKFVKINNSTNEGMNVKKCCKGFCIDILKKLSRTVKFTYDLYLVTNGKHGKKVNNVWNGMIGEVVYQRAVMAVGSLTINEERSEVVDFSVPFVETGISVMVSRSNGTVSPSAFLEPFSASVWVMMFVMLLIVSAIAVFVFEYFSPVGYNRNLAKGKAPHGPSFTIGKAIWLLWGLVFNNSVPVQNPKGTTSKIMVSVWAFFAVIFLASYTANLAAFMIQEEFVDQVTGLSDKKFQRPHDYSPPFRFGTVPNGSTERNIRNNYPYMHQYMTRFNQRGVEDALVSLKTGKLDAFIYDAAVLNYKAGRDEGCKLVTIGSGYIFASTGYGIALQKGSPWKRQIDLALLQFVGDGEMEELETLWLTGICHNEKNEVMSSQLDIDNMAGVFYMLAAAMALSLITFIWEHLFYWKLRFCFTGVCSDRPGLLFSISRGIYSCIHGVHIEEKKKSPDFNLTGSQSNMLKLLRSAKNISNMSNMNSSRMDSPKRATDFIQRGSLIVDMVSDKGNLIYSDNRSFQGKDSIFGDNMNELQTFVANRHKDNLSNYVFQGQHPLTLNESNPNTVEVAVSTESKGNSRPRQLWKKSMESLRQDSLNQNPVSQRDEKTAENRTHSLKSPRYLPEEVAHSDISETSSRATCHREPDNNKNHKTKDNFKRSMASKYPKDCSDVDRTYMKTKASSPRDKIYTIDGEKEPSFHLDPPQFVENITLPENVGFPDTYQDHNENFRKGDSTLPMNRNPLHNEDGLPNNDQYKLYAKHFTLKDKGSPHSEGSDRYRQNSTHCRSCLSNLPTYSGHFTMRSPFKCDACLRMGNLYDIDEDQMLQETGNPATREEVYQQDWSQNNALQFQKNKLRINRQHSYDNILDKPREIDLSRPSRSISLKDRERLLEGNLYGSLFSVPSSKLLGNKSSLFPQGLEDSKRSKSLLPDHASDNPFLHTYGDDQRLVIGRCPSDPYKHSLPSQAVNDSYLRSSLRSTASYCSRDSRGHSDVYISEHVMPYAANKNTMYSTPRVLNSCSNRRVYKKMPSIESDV
Where a name gives a salt, the structure may show the parent alone.
measurement label: IC50 (µM)
Respond with the bare value in µM.

Sample answers from the record:
In [3]: df
Out[3]:
                                   compound  unit_abbrev  value_measured
0  Fc1ccc(CC2CCN(CCOc3ccc4[nH]c(=S)[nH]c4c3)CC2)cc1           µM              48
1      Oc1ccc(CC2CCN(CCOc3ccc(F)cc3)CC2)cc1           µM              50
2  OC1(Cc2ccccc2)CCN(CCOc2ccccc2)CC1 [Ex. 47, hydrochloride]           µM              85
3  CN(CCN1CCC(Cc2ccccc2)CC1)c1ccc(O)cc1 [Ex. 163, dihydrochloride]           µM              35
4  O=c1[nH]c2ccc(OCCCN3CCC(Cc4ccccc4)CC3)cc2[nH]1           µM              62
5    c1ccc(CC2CCN(CCOc3ccc4ncccc4c3)CC2)cc1           µM              75
6  Oc1ccc(CCCN2CCC(Cc3ccccc3)CC2)cc1 [Ex. 106, hydrochloride]           µM              90
7  Clc1ccc(CC2CCN(CCOc3ccccc3)CC2)cc1 [Ex. 24, hydrochloride]           µM              70
8  c1ccc(CC2CCN(CCOc3ccc4c(c3)OCO4)CC2)cc1 [Ex. 148, hydrochloride]           µM             105
9  O=[N+]([O-])c1cccc(OCCN2CCC(Cc3ccccc3)CC2)c1           µM              80

## Task GET /values?readout=IC50&system=NMDA receptor subunits 1A/2A (Rattus norvegicus, UniProt P35439+Q00959)&item= Oc1ccc(OCCN2CCC(Cc3cccc(F)c3)CC2)cc1 [Ex. 112, hydrochloride]
## Result 30

## Task GET /values?readout=IC50&system=NMDA receptor subunits 1A/2A (Rattus norvegicus, UniProt P35439+Q00959)&item= Cc1ccc(CC2CCN(CCOc3ccc4[nH]c(=S)[nH]c4c3)CC2)cc1
## Result 35

## Task GET /values?readout=IC50&system=NMDA receptor subunits 1A/2A (Rattus norvegicus, UniProt P35439+Q00959)&item= O=[N+]([O-])c1ccc(CC2CCN(CCCOc3ccccc3)CC2)cc1 [Ex. 37, hydrobromide]
## Result 14

## Task GET /values?readout=IC50&system=NMDA receptor subunits 1A/2A (Rattus norvegicus, UniProt P35439+Q00959)&item= O=c1[nH]c2ccc(OCCN3CCC(Cc4ccccc4)CC3)cc2[nH]c1=O
## Result 25

## Task GET /values?readout=IC50&system=NMDA receptor subunits 1A/2A (Rattus norvegicus, UniProt P35439+Q00959)&item= Oc1ccc(OCCN2CCC(O)(Cc3ccc(F)cc3)CC2)cc1 [Ex. 123, hydrochloride]
## Result 50

## Task GET /values?readout=IC50&system=NMDA receptor subunits 1A/2A (Rattus norvegicus, UniProt P35439+Q00959)&item= Fc1ccc(OCCN2CCC(Cc3ccccc3)CC2)cc1 [Ex. 103, hydrochloride]
## Result 95

## Task GET /values?readout=IC50&system=NMDA receptor subunits 1A/2A (Rattus norvegicus, UniProt P35439+Q00959)&item= CC(COc1ccccc1)N1CCC(Cc2ccccc2)CC1 (stereo not shown) [Ex. 21, hydrobromide]
## Result 45

## Task GET /values?readout=IC50&system=NMDA receptor subunits 1A/2A (Rattus norvegicus, UniProt P35439+Q00959)&item= c1ccc(CC2CCN(CCCOc3ccccc3)CC2)cc1
## Result 89
